experimentNotes: self-splicing fitness, log relative to wild type (ln ratio); higher = more splicing; Tetrahymena group I intron in knt gene, E. coli kanamycin selection, DiMSum; sequences stand for … in CUCUCU…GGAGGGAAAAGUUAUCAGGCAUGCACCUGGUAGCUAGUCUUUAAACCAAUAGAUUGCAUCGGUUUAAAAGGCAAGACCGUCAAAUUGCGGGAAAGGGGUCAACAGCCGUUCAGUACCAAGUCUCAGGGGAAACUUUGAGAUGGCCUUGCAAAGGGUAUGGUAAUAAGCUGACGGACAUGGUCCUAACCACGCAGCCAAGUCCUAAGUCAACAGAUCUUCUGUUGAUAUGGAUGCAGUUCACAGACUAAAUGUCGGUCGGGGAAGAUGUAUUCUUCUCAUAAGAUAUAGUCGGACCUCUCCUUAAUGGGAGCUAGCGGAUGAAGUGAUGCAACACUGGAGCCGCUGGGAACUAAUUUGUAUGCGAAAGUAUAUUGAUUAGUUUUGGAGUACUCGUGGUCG;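 further: selection with 25 µg/mL kanamycin versus none on LB agar overnight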
testConditions: 37 °C
Parameter threshold = -2. Response is yes (1) when self-splicing fitness (ln) meets or exceeds it, else no (0).

Completed entries (count: 5):
{"columns": ["sequenceString", "classAssignment"],
 "data": [
  ["CUACAGCAAUAUUACGCAAC", "no (0)"],
  ["AGGUAGCAAUAUUACGAGUU", "yes (1)"],
  ["AAAGAGCAAUAUUACGGAUC", "no (0)"],
  ["CGUGAGCAAUAUUACGUCCA", "no (0)"],
  ["GGAGAGCAAUAUUACGGAAG", "yes (1)"]
]}

Lookup: Does self-splicing fitness (ln) meet or surpass -2 for `AGAUAGCAAUAUUACGAUUC` ?
Found: yes (1)

Lookup: Does self-splicing fitness (ln) meet or surpass -2 for `GACUAGCAAUAUUACGUAAC` ?
Found: yes (1)

Lookup: Does self-splicing fitness (ln) meet or surpass -2 for `UCCUAGCAAUAUUACGCAUU` ?
Found: yes (1)

Lookup: Does self-splicing fitness (ln) meet or surpass -2 for `GCCCAGCAAUAUUACGCAGC` ?
Found: yes (1)

Lookup: Does self-splicing fitness (ln) meet or surpass -2 for `CCGCAGCAAUAUUACGAAGG` ?
Found: no (0)

Source: the supplement of paper PMC7877785
